System: acute liver injury induced by carbon tetrachloride
experiment.summary: Protective effect on acute liver injury induced by carbon tetrachloride (mice, oral): plasma GPT activity and BSP retention
Format: in vivo, mice (ddY, male)
test.conditions: 5 mg/kg, 6 h before CCl4 (0.05 ml/kg p.o.), plasma
measurement.kind: GPT activity (Karmen units)
Kindly answer with a numeric value in Karmen units, unit omitted.

Below, each entry is followed by its recorded GPT activity result.
[[record]]
compound = "CCOC(=O)C1CCC[N+]1=c1sccs1.[Cl-] (stereo not drawn)"
tested_on = "acute liver injury induced by carbon tetrachloride"
measurement_kind = "GPT activity"
result_number = 231

[[record]]
compound = "C[N+](c1ccccc1)=c1sccs1.[O-][Cl+3]([O-])([O-])[O-]"
tested_on = "acute liver injury induced by carbon tetrachloride"
measurement_kind = "GPT activity"
result_number = 117

[[record]]
compound = "NC(=O)C1CCC[N+]1=c1sccs1.[I-] (stereo not drawn)"
tested_on = "acute liver injury induced by carbon tetrachloride"
measurement_kind = "GPT activity"
result_number = 5213

[[record]]
compound = "CCCCCCC1CCC[N+]1=c1sccs1.[O-][Cl+3]([O-])([O-])[O-] (stereo not drawn)"
tested_on = "acute liver injury induced by carbon tetrachloride"
measurement_kind = "GPT activity"
result_number = 1072


Please give the documented GPT activity of CNC(=O)C[N+](C)=c1sccs1
541

Please give the documented GPT activity of CCOC(=O)C1CCC[N+]1=c1sccs1.[O-][Cl+3]([O-])([O-])[O-] (stereo not drawn)
165

Please give the documented GPT activity of C[N+](CCC#N)=c1sccs1.[I-]
543

Please give the documented GPT activity of CCOC(=O)C1CC[N+](=c2sccs2)CC1.[O-][Cl+3]([O-])([O-])[O-] (stereo not drawn)
216

Please give the documented GPT activity of COC(=O)CC(C(=O)OC)[N+](C)=c1sccs1.[O-][Cl+3]([O-])([O-])[O-] (stereo not drawn)
3883

Data origin: patent US4737494A
